- System: HCT-116
- METHOD DESCRIPTION: NCI tumour cell line growth inhibition, 48 h
Active and inactive are the calls of the source. No stated cut-off is given here; in the data, active = GI50 up to about 1.1 µM and inactive = higher.
Recorded GI50 values for a group of molecules are listed next.

>  <MOLECULE>
CCN(CC)C(=S)SS(=O)(=O)c1ccc(F)cc1

>  <GI50>
25.3 µM (inactive)

$$$$
>  <MOLECULE>
Cc1cc(-c2nc3ccc(F)cc3s2)ccc1N

>  <GI50>
> 100 µM (inactive)

$$$$
>  <MOLECULE>
COc1cc2c(cc1OC)C1CCc3ccccc3CN1CC2 (centres undefined)

>  <GI50>
> 100 µM (inactive)

$$$$

Okay, next one:
Request: Please report GI50 for the following molecule: C=C1C(OC(=O)/C=C/c2ccccc2)CC(OC(C)=O)C2(C)C1CC1CC(OC(C)=O)C(C)=C(C(OC(C)=O)C2OC(C)=O)C1(C)C (centres undefined)
Result: 3.79 µM (inactive)

###

Recorded GI50 values for a group of compounds are listed next.
- System: HT-29
- METHOD DESCRIPTION: NCI tumour cell line growth inhibition, 48 h
Calls of active or inactive are those of the source. Rule as the data show it: active = GI50 up to about 1.1 µM and inactive = higher.

Worked examples follow.
>  <COMPOUND>
C[C@]1(O)O[C@@H]2OCC[C@@H]2C2=C1C(=O)c1ccccc1C2=O

>  <TGT>
HT-29

>  <GI50>
29.9 µM (inactive)

$$$$
>  <COMPOUND>
Oc1cc(-c2cccc(OCc3ccccc3)c2)nc2cc3c(cc12)OCO3

>  <TGT>
HT-29

>  <GI50>
2.01 µM (inactive)

$$$$
>  <COMPOUND>
CC(=O)Nc1ccc2cc3[nH]c4cc(NC(C)=O)ccc4c3nc2c1

>  <TGT>
HT-29

>  <GI50>
> 100 µM (inactive)

$$$$
>  <COMPOUND>
O=C(O)c1cccc(CC(Br)C(=O)O)c1 (configuration not stated)

>  <TGT>
HT-29

>  <GI50>
> 100 µM (inactive)

$$$$

Request: Please report GI50 for the following compound: O=C1CS(=O)(=O)C(c2cccc(Oc3ccccc3)c2)N1c1cccc(Cl)c1Cl (configuration not stated)
Result: 25.2 µM (inactive)

Request: Please report GI50 for the following compound: "COc1ccc2c(c1)CCc1c-2n(CCN2CCCCC2)c2ccc(OC)cc12"
Result: 9.12 µM (inactive)

Request: Please report GI50 for the following compound: CCOP(=O)(OCC)C1CC(O)C(=O)N1 (configuration not stated)
Result: > 100 µM (inactive)

###

- System: SR
- METHOD DESCRIPTION: NCI tumour cell line growth inhibition, 48 h
Activity calls are given as the source filed them. Cut-off read from the data, not from the text of the source: active = GI50 up to about 1.1 µM and inactive = higher.
EXPERIMENTAL READOUT: GI50

>  <COMPOUND>
C=C1C(=O)O[C@@H]2C[C@@H](C)[C@@H]3[C@@H](OC4OC(COC(C)=O)C(O)C(O)C4O)CC(=O)[C@@]3(C)C[C@H]12 (stereo partly drawn)

>  <TGT>
SR

>  <GI50>
1.6 µM (inactive)

$$$$

Okay, next one:
Request: Please report GI50 for the following compound: C=CCc1ccc(O)c(-c2cc(C3Oc4c(-c5cc(CC=C)ccc5O)cc(O)cc4[C@@H]3CO)ccc2O)c1 (stereo partly drawn)
Result: 14.4 µM (inactive)

###

- System: SNB-75
- METHOD DESCRIPTION: NCI tumour cell line growth inhibition, 48 h
Active and inactive are the calls of the source. Rule as the data show it: active = GI50 up to about 1.1 µM and inactive = higher.
Outcome (select one): active, inactive

Answered cases to consult:
>  <MOLECULE>
Cc1c2ccnc(C(N)=O)c2c(C)c2c1[nH]c1ccccc12

>  <LABEL>
inactive

$$$$
>  <MOLECULE>
O=C(NNc1ccnc2cc(Cl)ccc12)/C(=C\c1ccccc1Cl)NC(=O)c1ccccc1

>  <LABEL>
inactive

$$$$
>  <MOLECULE>
O=C(N/C(=C\c1ccc2c(c1)OCO2)c1nc2ccccc2[nH]1)c1ccccc1

>  <LABEL>
inactive

$$$$
>  <MOLECULE>
Cc1nc2c(nc1C)-c1c(c3c(n1C)C(=O)CCC3)C(=O)C2=O

>  <LABEL>
active

$$$$
>  <MOLECULE>
O=C(/C=C/c1ccc(O)c(O)c1)NC(COC(=O)/C=C/c1ccc(O)c(O)c1)C(=O)O (stereo unspecified)

>  <LABEL>
inactive

$$$$
>  <MOLECULE>
C=C(Br)C(Br)(CCl)CCC(Cl)C(C)C.C=C(Cl)C(Br)(CCl)CCC(Cl)C(C)C (stereo unspecified)

>  <LABEL>
active

$$$$
>  <MOLECULE>
COc1cc2cc(C(=O)N3CC(CCl)c4c3cc(O)c3ccccc43)[nH]c2c(OC)c1OC (stereo unspecified)

>  <LABEL>
active

$$$$
>  <MOLECULE>
S=C(c1c[nH]c2ccccc12)N1CCN(c2ccccc2)CC1

>  <LABEL>
active

$$$$

Request: Per the assay record, what outcome was assigned to "CCC/C(Cl)=N\OC(=O)Nc1ccc(F)c([N+](=O)[O-])c1" ?
Result: inactive

Request: Per the assay record, what outcome was assigned to CCCCCCCCCCCCCCCC(=O)NCC(COP(=O)([O-])OCC[N+](C)(C)C)OCC (stereo unspecified) ?
Result: inactive

Request: Per the assay record, what outcome was assigned to CCC12C=CCN3CCC4(c5cc(C(c6ccc(OC)cc6)C6Cc7ccccc7N6)c(OC)cc5N(C)C4C(O)(C(=O)OC)C1O)C32 (stereo unspecified) ?
Result: inactive

Request: Per the assay record, what outcome was assigned to "Cc1cc(N(CCC#N)CCC#N)ccc1/C=C\C(=O)Nc1ccccc1" ?
Result: inactive

Request: Per the assay record, what outcome was assigned to "CCN(CCCl)c1ccc(NC(=O)c2cc(C(=O)NCCN(C)C)cc(C(=O)Nc3ccc(N(CC)CCCl)cc3)c2)cc1" ?
Result: inactive

Request: Per the assay record, what outcome was assigned to "COC(=O)[C@@H]1[C@@H]2NC(=S)N[C@@]1(C)Oc1ccccc12" ?
Result: inactive

###

Recorded GI50 values for a group of molecules are listed next.
- System: SK-MEL-28
- METHOD DESCRIPTION: NCI tumour cell line growth inhibition, 48 h
Activity calls are given as the source filed them. No stated cut-off is given here; in the data, active = GI50 up to about 1.1 µM and inactive = higher.

>  <MOLECULE>
C=C1CC(COc2ccc3c(C)cc(=O)oc3c2)(c2ccccc2)OC1=O (stereo unspecified)

>  <OBS VALUE>
2.41 µM (inactive)

$$$$

Request: Please report GI50 for the following molecule: CC1COS(=O)N1c1ccccc1 (stereo unspecified)
Result: > 100 µM (inactive)

###

- Tested on: SF-295
- METHOD DESCRIPTION: NCI tumour cell line growth inhibition, 48 h
Activity calls are given as the source filed them. Cut-off read from the data, not from the text of the source: active = GI50 up to about 1.1 µM and inactive = higher.
EXPERIMENTAL READOUT: GI50

Worked examples follow.
>  <COMPOUND>
C=C(Cl)C(Cl)(CBr)CCCC(C)(C)Cl (stereo not drawn)

>  <OBS VALUE>
7.55 µM (inactive)

$$$$
>  <COMPOUND>
CC1CNC(c2ccc(CN3CCC(CCCC4CCN(Cc5ccc(C6=NC(C)CN6)cc5)CC4)CC3)cc2)=N1 (stereo not drawn)

>  <OBS VALUE>
> 100 µM (inactive)

$$$$

Okay, next one:
Request: Please report GI50 for the following compound: O=C(CC1(O)C(=O)Nc2c(Cl)ccc(Cl)c21)c1ccc(F)cc1 (stereo not drawn)
Result: 36 µM (inactive)

###

Recorded GI50 values for a group of compounds are listed next.
- System: DU-145
- METHOD DESCRIPTION: NCI tumour cell line growth inhibition, 48 h
Calls of active or inactive are those of the source. Cut-off read from the data, not from the text of the source: active = GI50 up to about 1.1 µM and inactive = higher.

>  <COMPOUND STRUCTURE>
Cc1ccc(S(=O)(=O)N2CCN(S(=O)(=O)c3ccc(C)cc3)Cc3ccccc3C2)cc1

>  <OBS VALUE>
> 100 µM (inactive)

$$$$
>  <COMPOUND STRUCTURE>
Cc1ccc2c(c1)-c1nc(N)c(C#N)c(-c3ccc(Cl)cc3)c1CCS2(=O)=O

>  <OBS VALUE>
53.8 µM (inactive)

$$$$
>  <COMPOUND STRUCTURE>
CCCC/N=C(/c1ccccc1)N1CCOCC1

>  <OBS VALUE>
> 100 µM (inactive)

$$$$
>  <COMPOUND STRUCTURE>
Cc1ccc(Cl)c2[nH]c(-c3ccccc3)cc(=O)c12

>  <OBS VALUE>
43.7 µM (inactive)

$$$$
>  <COMPOUND STRUCTURE>
COC(CNC(=O)CNC(=O)c1ccc(C(F)(F)F)cc1)OC

>  <OBS VALUE>
> 100 µM (inactive)

$$$$

Request: Please report GI50 for the following compound: "O=c1c(-c2ccccc2)c(SCCCN2CCCCC2)n(-c2ccccc2)c(=S)n1-c1ccccc1"
Result: 17.7 µM (inactive)

Request: Please report GI50 for the following compound: "O=C(c1cccs1)N(C(=S)OC12CC3CC(CC(C3)C1)C2)c1ccccc1"
Result: 84.7 µM (inactive)
